Measured pEC50 by item
test_target: T1, Human ADAM9 protein (ACROBiosystems, Cat. No. AD9-H52H7) (human, UniProt Q13443 29-697)
T1 construct: Bought protein; also called Human ADAM-His protein; human ADAM9 antigen; not shown: His tag
T1 sequence (looked up): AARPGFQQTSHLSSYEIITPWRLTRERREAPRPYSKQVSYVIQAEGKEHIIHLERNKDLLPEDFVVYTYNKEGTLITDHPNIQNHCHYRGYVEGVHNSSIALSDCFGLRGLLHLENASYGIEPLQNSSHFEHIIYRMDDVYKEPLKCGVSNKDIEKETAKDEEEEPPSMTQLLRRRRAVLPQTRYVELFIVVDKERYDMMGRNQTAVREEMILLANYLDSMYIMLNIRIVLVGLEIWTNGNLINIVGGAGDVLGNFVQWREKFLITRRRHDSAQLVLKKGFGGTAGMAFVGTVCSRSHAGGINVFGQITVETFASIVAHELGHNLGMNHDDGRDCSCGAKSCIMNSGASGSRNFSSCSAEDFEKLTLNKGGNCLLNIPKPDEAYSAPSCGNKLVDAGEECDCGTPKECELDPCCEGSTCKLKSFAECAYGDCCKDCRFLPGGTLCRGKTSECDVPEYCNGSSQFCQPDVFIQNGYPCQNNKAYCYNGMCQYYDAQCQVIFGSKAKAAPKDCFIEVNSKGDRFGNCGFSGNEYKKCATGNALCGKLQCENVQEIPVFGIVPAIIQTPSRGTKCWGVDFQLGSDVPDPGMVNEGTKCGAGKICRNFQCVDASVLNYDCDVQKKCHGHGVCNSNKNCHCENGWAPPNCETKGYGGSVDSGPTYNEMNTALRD
procedure_summary: indirect ELISA, human ADAM9-His coated at 1 ug/mL
Description: The plate was washed three times with PBST (PBS (pH 7.4) containing 0.05% Tween-20), followed by addition of 200 μL/well of blocking buffer containing 1% bovine serum albumin (BSA) diluted in PBST, and incubated at 37° C. for 1 hour for blocking. […] The reaction was terminated by adding 50 μL/well of 1 M HCl, and the absorbance was measured at 450 nm using a microplate reader (Thermo, Ascent) for data analysis.
# log scale: pEC50 equals minus log10 of the concentration in mol/L

Worked cases, pEC50 given:
Ab7 (antibody, human IgG1, kappa, V domains shown, also called Ab07; Ab7-V (variable regions)) VH: QVQLQESGAEVKRPGSSVKVSCKASGFTFPLYWMNWVRQRPGQGLEWMGRIIPIFGHTDYNEKFKDRATITRDESSNTAYMELSRLRSEDSAVYYCARGGYYYYPREGFLDYWGQGTSVTVSS VL: DIVMTQSPASLSVSPGERASINCRSDQSVDYSGDSYMNWYQQKPGKSPRLLIYAASDRESGVPDRFSGSGSGTDFTLNINSVEEEDAGTYYCQQSREDPFTFGQGTRVDIKR :: 10.22
Ab16 (antibody, human IgG1, kappa, V domains shown, Humanized anti-ADAM9 IgG1/kappa; also called Ab16-V (variable regions)) VH: QVQLQQPGTEVVKPGASVKLSCKASGFTFPLYWMHWVRQRPGRGLEWIGRIIPIFGHTKYNEKFKNKATLTADESSSTAYMELRSLTSDDSAVYYCARGGYYYYPREGFLDYWGQGTSVTVSS VL: DIVMTQSPASLSVSPGERASISCRSSQSVDYSGDSYMNWYQQKPGQSPRLLIYAASDRESGVPDRFSGSGSGTDFTLKISRVEEEDAGTYYCQQSREDPFTFGQGTKVDIKR :: 10.38
Ab4 (antibody, human IgG1, kappa, V domains shown, also called Ab04; Ab4-V (variable regions)) VH: QVQLQESGAEVKRPGSSVKVSCKASGFTFPLYWMNWVRQRPGRGLEWMGRIIPIFGHTKYNEKFKDRATMTRDKSSSTAYMELSSLTSDDSAVYYCARGGYYYYPREGFLDYWGQGTSVTVSS VL: DIVMTQSPSSLSVSPGERATINCRSSQSVDYSGDSYMNWYQQKPGQAPRLLIYAASDLESGVPDRFSGSGSGTDFTLNINGVEEEDAATYYCQQSREDPFTFGQGTKVEIKR :: 10.26

Recorded pEC50 (binder Ab1 (antibody, human IgG1, kappa, V domains shown, also called Ab01; Ab1-V (variable regions)) VH: QVQLQESGAEVKRPGSSVKVSCKASGFTFPLYWMNWVRQRPGQGLEWMGRIIPIFGHTDYNEKFKDRATITRDESSNTAYMELSRLRSEDSAVYYCARGGYYYYPREGFLDYWGQGTSVTVSS VL: DIVMTQSPASLSVSPGERASISCRSSQSVDYSGDSYMNWYQQKPGQSPRLLIYAASDRESGVPDRFSGSGSGTDFTLKISRVEEEDAGTYYCQQSREDPFTFGQGTKVDIKR ): 10.28

Form field pEC50, entry Ab10 (antibody, human IgG1, kappa, V domains shown, also called Ab10-V (variable regions)) VH: QVQLQESGAELKRPGSSVKVSCKASGFTFPLYWMNWVRQRPGRGLEWMGRIIPIFGHTKYNEKFKDRATLTADESSSTAYMELSSLRSDDSAVYYCARGGYYYYPREGFLDYWGQGTSVTVSS VL: DIVMTQSPASLSVSPGERASISCRSSQSVDYSGDSYMNWYQQKPGQSPRLLIYAASDRESGVPARFSGSKSGTDFTLKINRVEEEDAGTYYCQQSREDPFTFGQGTRVEIKR : 10.23

The binder identified as Ab15 (antibody, human IgG1, kappa, V domains shown, Humanized anti-ADAM9 IgG1/kappa; also called Ab15-V (variable regions)) VH: QVQLQQPGAELKKPGASVKVSCKASGFTFPLYWMNWVRQRPGRGLEWIGRIIPIFGHTKYNEKFKDRATMTADESSSTAYMELSSLTSEDSAVYYCARGGYYYYPREGFLDYWGQGTSVTVSS VL: DIVMTQSPDSLSVSPGERATINCRSSQSVDYSGDSYMNWYQQKPGQSPRLLIYAASDRESGVPDRFSGSGSGTDFTLKISNVEEEDAATYYCQQSREDPFTFGQGTRVEIKR registered its pEC50 at 10.31
